- assay-info: Caco-2 membrane permeability, improved method as used in the following Examples (96-well, 20 to 24 h preincubation)
- Format: in vitro ADME
- assay-setup: human, Caco-2, Caco-2
Positions of bridges follow the written chain, without caps; N, C: chain ends. Non-standard residues stand in square brackets, D forms with d. Residues, ends and D or L forms follow the SMILES beside them. ξ: configuration not given here. *: point of attachment. Glu(NHSO2Me) = CS(=O)(=O)NC(=O)CC[C@H](N)C(=O)O; Hyp = O=C(O)[C@@H]1C[C@@H](O)CN1; NMeF = CN[C@@H](Cc1ccccc1)C(=O)O; NMeL = CN[C@@H](CC(C)C)C(=O)O; NMeV = CN[C@H](C(=O)O)C(C)C; NMeA = CN[C@@H](C)C(=O)O; Piperidide = C1CCN(*)CC1; dAbu = CC[C@@H](N)C(=O)O; Me2NCH2CH2 = CN(C)CC*; NBuGly = CCCCNCC(=O)O; NPrGly = CCCNCC(=O)O; ξS = NC(CO)C(=O)O; tBu = CC(C)(C)*
Mark Condition met for Papp A→B at 180 min under 10 nm/s, Condition not met if at or over.

Examples with answers:
Is Papp A→B at 180 min of CCCCN1CC(=O)N(C)[C@@H](CC(C)C)C(=O)N[C@@H](COC(C)(C)C)C(=O)N(C)[C@@H](Cc2ccccc2)C(=O)N(C)[C@@H](C(C)C)C(=O)N[C@H](C(=O)N2CCCCC2)CC(=O)N[C@H](C(C)C)C(=O)N(C)[C@@H](Cc2ccccc2)C(=O)N[C@@H](CCC(=O)NS(C)(=O)=O)C(=O)N(C)[C@@H](CC(C)C)C(=O)N[C@@H](CC(C)C)C1=O [pd67] ([dV][NMeF][Glu(NHSO2Me)][NMeL]L[NBuGly][NMeL]S(tBu)[NMeF][NMeV]D-Piperidide; lactam N-11) strictly below 10 nm/s?
Condition met

Is Papp A→B at 180 min of CCO[C@@H]1C[C@H]2C(=O)N[C@@H](Cc3ccccc3)C(=O)N(C)[C@@H](CC(C)C)C(=O)N[C@H](C(=O)N3CCCCC3)CC(=O)N[C@H](CC)C(=O)N(C)[C@@H](CC(C)C)C(=O)N[C@@H](COC(C)(C)C)C(=O)N(C)[C@@H](CC(C)C)C(=O)N[C@@H](CC(C)C)C(=O)N(C)[C@@H](CC(C)C)C(=O)N[C@@H]([C@@H](C)O)C(=O)N2C1 [pd375] ([dAbu][NMeL]S(tBu)[NMeL]L[NMeL]T[Hyp](Et)F[NMeL]D-Piperidide; lactam N-11) strictly below 10 nm/s?
Condition not met

Could you now consider this next compound?
Is Papp A→B at 180 min of CCCN1CC(=O)N(C)[C@@H](C(C)C)C(=O)N[C@H](C(=O)N2CCCCC2)CC(=O)N(C)[C@@H](C)C(=O)N[C@@H](CC(C)C)C(=O)N(C)[C@@H](CC(C)C)C(=O)N(C)[C@@H](Cc2ccccc2)C(=O)NC(COCCN(C)C)C(=O)N(C)[C@@H](Cc2ccccc2)C(=O)N(C)[C@@H](CC(C)C)C(=O)N[C@@H]([C@@H](C)O)C1=O (stereo partly drawn) [pd57] ([NMeA]L[NMeL][NMeF][ξS](Me2NCH2CH2)[NMeF][NMeL]T[NPrGly][NMeV]D-Piperidide; lactam N-11) strictly below 10 nm/s?
Condition met
